System: marrow cells (mononuclear cell fraction)
methodNotes: Proliferation-stimulating effect on marrow cell of mouse (3H-TdR uptake)
Assay type: cell-based, mouse (BALB/c)
conditions: 10^-1 μg/ml, percentage of control, 72 h
metric: activity at 0.1 µg/mL (%)

smilesStr	metric	endpointValue
CCCCCCCCCCCCC/C=C/[C@@H](O)[C@H](CO[C@H]1O[C@H](CO)[C@H](O)[C@H](O)[C@H]1O)NC(=O)CCCCCCCCCCCCC	activity at 0.1 µg/mL	405
CCCCCCCCCCCCCCCCCCCCCCCC(=O)N[C@@H](CO[C@H]1O[C@H](CO)[C@H](O)[C@H](O)[C@H]1O)[C@H](O)[C@H](O)CCCCCCCCCCC	activity at 0.1 µg/mL	472
CCCCCCCCCCCCCCCCCCCCCCCCCC(=O)N[C@@H](CO[C@H]1O[C@H](CO)[C@H](O)[C@H](O)[C@H]1O)[C@H](O)[C@H](O)CCCCCCCCCCCCC	activity at 0.1 µg/mL	466
CCCCCCCCCCCCCC(=O)N[C@@H](CO[C@H]1O[C@H](CO)[C@H](O)[C@H](O)[C@H]1O)[C@H](O)CCCCCCCCCCCCC	activity at 0.1 µg/mL	356
CCCCCCCCCCCCCCC[C@@H](O)[C@H](CO[C@H]1O[C@H](CO)[C@H](O)[C@H](O)[C@H]1O)NC(=O)CCCCCCCCCCCCC	activity at 0.1 µg/mL	377
CCCCCCCCCCCCCCCCCCCCCCCC(=O)N[C@@H](CO[C@H]1O[C@H](CO)[C@H](O)[C@H](O)[C@H]1O)[C@H](O)CCCCCCCCCCCCCCC	activity at 0.1 µg/mL	465
CCCCCCCCCCCCCCCCCCCCCCCC(=O)N[C@@H](CO[C@H]1O[C@H](CO)[C@H](O)[C@H](O)[C@H]1O)[C@H](O)CCCCCCCCCCC	activity at 0.1 µg/mL	547
CCCCCCCCCCCCCCCCCCCCCCCC(=O)N[C@@H](CO[C@H]1O[C@H](CO)[C@H](O)[C@H](O)[C@H]1O)[C@H](O)[C@H](O)CCCCCCCCCCCC(C)C	activity at 0.1 µg/mL	326
CCCCCCCCCCCCCCCCCCCCCC(=O)N[C@@H](CO[C@H]1O[C@H](CO)[C@H](O)[C@H](O)[C@H]1O)[C@H](O)CCCCCCCCCCCCCCC	activity at 0.1 µg/mL	295
CCCCCCCCCCCCC/C=C/[C@@H](O)[C@H](CO[C@H]1O[C@H](CO)[C@H](O)[C@H](O)[C@H]1O)NC(=O)CCCCCCCCCCCCCCCCC	activity at 0.1 µg/mL	292
CCCCCCCCCCCCCCCCCCCCCCCC[C@@H](O)C(=O)N[C@@H](CO[C@H]1O[C@H](CO)[C@H](O)[C@H](O)[C@H]1O)[C@H](O)[C@H](O)CCCCCCCCCCCCCCCC	activity at 0.1 µg/mL	220

----------
methodNotes: Life-span-increasing effect on irradiation of a lethal dose of radiation
Assay type: in vivo, mouse (BDF1)
conditions: day 20; 10 mice/group; 9 Gy X-ray; 0.1 mg/kg i.v. days 0, 4, 8; controls per series 4, 5, 1, 2, 3, 0
Some compounds, each annotated with its measured Number of Surviving Mice.

compound	Number of Surviving Mice [mice]
CCCCCCCCCCCCCCCCCCCCCCCC(=O)N[C@@H](CO[C@H]1O[C@H](CO)[C@H](O)[C@H](O)[C@H]1O)[C@H](O)CCCCCCCCCCCCCCC [Compound 1]	10
CCCCCCCCCCCCCCC[C@@H](O)[C@H](CO[C@H]1O[C@H](CO)[C@H](O)[C@H](O)[C@H]1O)NC(C)=O [Compound 8]	1
CCCCCCCCCCCCCCCCCCCCCCCCCC(=O)N[C@@H](CO[C@H]1O[C@H](CO)[C@H](O)[C@H](O)[C@H]1O)[C@H](O)[C@H](O)CCCCCCCCCCCCCC [Compound 33]	7
CCCCCCCCCCCCCCCCCCCCCCCC(=O)N[C@@H](CO[C@H]1O[C@H](CO)[C@H](O)[C@H](O)[C@H]1O)[C@H](O)[C@H](O)CCCCCCCCCCCCC [Compound 17]	9
CCCCCCCCCCCCCCCCCCCCCCCC[C@@H](O)C(=O)N[C@@H](CO[C@H]1O[C@H](CO)[C@H](O)[C@H](O)[C@H]1O)[C@H](O)[C@H](O)CCCCCCCCCCCCCCCC [Compound 27]	9
CCCCCCCCCCCCCCCCCCCCCCCCCCCC(=O)N[C@@H](CO[C@H]1O[C@H](CO)[C@H](O)[C@H](O)[C@H]1O)[C@H](O)[C@H](O)CCCCCCCCCCCCC [Compound 34]	10
CCCCCCCCCCCCCCCCCCCCCC[C@@H](O)C(=O)N[C@@H](CO[C@H]1O[C@H](CO)[C@H](O)[C@H](O)[C@H]1O)[C@H](O)[C@H](O)CCCCCCCCCCC [Compound 23]	9
CCCCCCCCCCCCCCCCCCCCCCCC[C@@H](O)C(=O)N[C@@H](CO[C@H]1O[C@H](CO)[C@H](O)[C@H](O)[C@H]1O)[C@H](O)[C@H](O)CCCCCCCCCCCCCCC [Compound 26]	9
CCCCCCCCCCCCCCCCCCCCCCCC[C@@H](O)C(=O)N[C@@H](CO[C@H]1O[C@H](CO)[C@H](O)[C@H](O)[C@H]1O)[C@H](O)[C@H](O)CCCCCCCCCCCCCC [Compound 25]	7
CCCCCCCCCCCCCCCCCCCCCCCC(=O)N[C@@H](CO[C@H]1O[C@H](CO)[C@H](O)[C@H](O)[C@H]1O)[C@H](O)[C@H](O)CCCCCCC [Compound 19]	10
CCCCCCCCCCCCC/C=C/[C@@H](O)[C@H](CO[C@H]1O[C@H](CO)[C@H](O)[C@H](O)[C@H]1O)NC(=O)CCCCCCCCCCCCC [Compound 32]	4
CCCCCCCCCCCCCCCCCCCCCC[C@@H](O)C(=O)N[C@@H](CO[C@H]1O[C@H](CO)[C@H](O)[C@H](O)[C@H]1O)[C@H](O)[C@H](O)CCCCCCCCCCCCC [Compound 22]	10

----------
System: marrow cells (mononuclear cell fraction)
methodNotes: Proliferation-stimulating effect on marrow cell of mouse (3H-TdR uptake)
Type: cell-based, mouse (BALB/c)
conditions: 10^-2 μg/ml, percentage of control, 72 h
Some molecules, each annotated with its measured activity at 0.01 µg/mL.

smilesStr	activity at 0.01 µg/mL
CCCCCCCCCCCCCC(=O)N[C@@H](CO[C@H]1O[C@H](CO)[C@H](O)[C@H](O)[C@H]1O)[C@H](O)CCCCCCCCCCCCC	90%
CCCCCCCCCCCCC/C=C/[C@@H](O)[C@H](CO[C@H]1O[C@H](CO)[C@H](O)[C@H](O)[C@H]1O)NC(=O)CCCCCCCCCCCCCCCCC	101%
CCCCCCCCCCCCC/C=C/[C@@H](O)[C@H](CO[C@H]1O[C@H](CO)[C@H](O)[C@H](O)[C@H]1O)NC(=O)CCCCCCCCCCCCC	151%
CCCCCCCCCCCCCCC[C@@H](O)[C@H](CO[C@H]1O[C@H](CO)[C@H](O)[C@H](O)[C@H]1O)NC(=O)CCCCCCCCCCCCC	261%
CCCCCCCCCCCCCCCCCCCCCCCC(=O)N[C@@H](CO[C@H]1O[C@H](CO)[C@H](O)[C@H](O)[C@H]1O)[C@H](O)[C@H](O)CCCCCCCCCCCCCC	152%
CCCCCCCCCCCCCCCCCCCCCCCC(=O)N[C@@H](CO[C@H]1O[C@H](CO)[C@H](O)[C@H](O)[C@H]1O)[C@H](O)[C@H](O)CCCCCCCCCCCC(C)C	104%
CCCCCCCCCCCCCCCCCCCCCCCC(=O)N[C@@H](CO[C@H]1O[C@H](CO)[C@H](O)[C@H](O)[C@H]1O)[C@H](O)[C@H](O)CCCCCCCCCCCCC	149%
CCCCCCCCCCCCCCCCCCCCCCCCCC(=O)N[C@@H](CO[C@H]1O[C@H](CO)[C@H](O)[C@H](O)[C@H]1O)[C@H](O)[C@H](O)CCCCCCCCCCCCC	201%
CCCCCCCCCCCCCCCCCCCCCCCC(=O)N[C@@H](CO[C@H]1O[C@H](CO)[C@H](O)[C@H](O)[C@H]1O)[C@H](O)[C@H](O)CCCCCCCCCCC	124%
CCCCCCCCCCCCCCCCCCCCCCCC[C@@H](O)C(=O)N[C@@H](CO[C@H]1O[C@H](CO)[C@H](O)[C@H](O)[C@H]1O)[C@H](O)[C@H](O)CCCCCCCCCCCCCC	161%
CCCCCCCCCCCCCCCCCCCCCC[C@@H](O)C(=O)N[C@@H](CO[C@H]1O[C@H](CO)[C@H](O)[C@H](O)[C@H]1O)[C@H](O)[C@H](O)CCCCCCCCCCCCC	116%
